Tested on: NCI-H929 complex spheroids, viability % test/control
Assay: Anticancer human tumor NCI-H929 cell line growth inhibition [RAS];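 also: compound exposure lasted seven days before viability was read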
Settings: curve of first compound; second compound 0.1 µM
Excerpt: RAS pathway inhibitors in Combinations in Complex Spheroids A high-throughput screen of multi-cell type tumor spheroids was designed to identify active combinations of RAS pathway inhibitors and targeted small molecules. Complex spheroids include a stromal component modeled by human endothelial cells (HUVEC) and fibroblasts modeled by human mesenchymal stem cells (MSCs). […] Compounds. […] If the clinical Cmax for an agent had not been determined, the highest concentration tested was 10 microM. […]
Known IC50 of a selection of molecules

Worked cases, answers included:
* CCN1CCN(Cc2ccc(Nc3ncc(F)c(-c4cc(F)c5nc(C)n(C(C)C)c5c4)n3)nc2)CC1 + C#Cc1c(F)ccc2cc(O)cc(-c3ncc4c(N5CC6CCC(C5)N6)nc(OCC56CCCN5CC(F)C6)nc4c3F)c12 | > 1 µM
* NC1c2ccccc2OC12CCN(c1cnc3c(N4CCCc5ncccc54)n[nH]c3n1)CC2 (configuration not stated) + C=CC(=O)N1CCN(c2nc(OCC3CCCN3C)nc3c(F)c(-c4nc(N)cc(C)c4C(F)(F)F)c(Cl)cc23)C(C)C1 | > 10 µM
* CC(Nc1ccc2c(c1)OCCn1cc(N3C(=O)OCC3C(F)F)nc1-2)C(N)=O (configuration not stated) + C#Cc1c(F)ccc2cc(O)cc(-c3ncc4c(N5CC6CCC(C5)N6)nc(OCC56CCCN5CC(F)C6)nc4c3F)c12 | > 10 µM
* NC1c2ccccc2OC12CCN(c1cnc3c(N4CCCc5ncccc54)n[nH]c3n1)CC2 (configuration not stated) + C#Cc1c(F)ccc2cc(O)cc(-c3ncc4c(N5CC6CCC(C5)N6)nc(OCC56CCCN5CC(F)C6)nc4c3F)c12 | > 10 µM

Please give the documented IC50 of C=CC(=O)Nc1cc(Nc2nccc(-c3cn(C)c4ccccc34)n2)c(OC)cc1N(C)CCN(C)C + C=CC(=O)N1CCN(c2nc(OCC3CCCN3C)nc3c(F)c(-c4nc(N)cc(C)c4C(F)(F)F)c(Cl)cc23)C(C)C1
> 1 µM

Please give the documented IC50 of C[C@@H](NC(=O)c1ncnc(N)c1Cl)c1ncc(C(=O)Nc2cc(C(F)(F)F)c(Cl)cn2)s1 + C=CC(=O)N1CCN(c2nc(OCC3CCCN3C)nc3c(F)c(-c4nc(N)cc(C)c4C(F)(F)F)c(Cl)cc23)C(C)C1
> 10 µM

Please give the documented IC50 of CC(=O)OC12COC1CC(O)C1(C)C(=O)C(O)C3=C(C)C(OC(=O)C(O)C(NC(=O)OC(C)(C)C)c4ccccc4)CC(O)(C(OC(=O)c4ccccc4)C21)C3(C)C (configuration not stated) + C=CC(=O)N1CCN(c2nc(OCC3CCCN3C)nc3c(F)c(-c4nc(N)cc(C)c4C(F)(F)F)c(Cl)cc23)C(C)C1
< 0.0316 µM

# credit: PubChem BioAssay AID2060884
